# assay.target: Voltage-gated potassium channel subunit beta-2 (Rattus norvegicus) (UniProt P62483)
# Sequence (P62483 whole entry, looked up): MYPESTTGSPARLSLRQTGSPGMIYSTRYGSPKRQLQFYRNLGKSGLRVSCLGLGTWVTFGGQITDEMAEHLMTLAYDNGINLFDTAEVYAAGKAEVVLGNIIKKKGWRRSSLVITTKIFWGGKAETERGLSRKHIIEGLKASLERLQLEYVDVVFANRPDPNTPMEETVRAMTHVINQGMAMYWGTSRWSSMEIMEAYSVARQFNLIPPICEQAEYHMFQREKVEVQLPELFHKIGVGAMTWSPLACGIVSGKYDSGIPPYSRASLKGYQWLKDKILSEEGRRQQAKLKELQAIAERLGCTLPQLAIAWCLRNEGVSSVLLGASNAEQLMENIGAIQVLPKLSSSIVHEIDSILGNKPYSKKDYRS
# measurement.notes: inhibitors of rat Kvbeta2 reductase activity – biochemical, NADPH fluorescence, primary screen (AID 622);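 further: slope of raw intensity against log time taken from 70 to 1610 s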
# condition.summary: recombinant KvBeta, 4-cyanobenzaldehyde reduction, at 10 µM, stronger effect = higher value
endpoint: fluorescence slope

# compound, assay.target, endpoint, meas.value
rows = [
    ("CC1=Nn2c(nnc2-c2ccccc2)SC1", "Voltage-gated potassium channel subunit beta-2 (Rattus norvegicus) (UniProt P62483)", "fluorescence slope", -0.374),
    ("COCCn1c(=O)[nH]c2cc(C(=O)N3CCN(c4ccccc4OC)CC3)ccc2c1=O", "Voltage-gated potassium channel subunit beta-2 (Rattus norvegicus) (UniProt P62483)", "fluorescence slope", -0.44),
    ("CCCCn1c(SCC(=O)OCC)nc2c1c(=O)[nH]c(=O)n2C", "Voltage-gated potassium channel subunit beta-2 (Rattus norvegicus) (UniProt P62483)", "fluorescence slope", -0.499),
    ("Cc1cc(C)n(C(=O)C23CC4CC(CC(C4)C2)C3)n1", "Voltage-gated potassium channel subunit beta-2 (Rattus norvegicus) (UniProt P62483)", "fluorescence slope", -0.514),
    ("CCOc1ccc2[nH]c(=O)c(CN(CCOC)C(=O)N3CCOCC3)cc2c1", "Voltage-gated potassium channel subunit beta-2 (Rattus norvegicus) (UniProt P62483)", "fluorescence slope", -0.395),
    ("N#Cc1nc(COc2ccccc2Cl)oc1N1CCCCCC1", "Voltage-gated potassium channel subunit beta-2 (Rattus norvegicus) (UniProt P62483)", "fluorescence slope", -0.431),
    ("CC(C(=O)Nc1ccccc1-c1ccccc1)N1CCN(C(=O)c2ccco2)CC1 (configuration not stated)", "Voltage-gated potassium channel subunit beta-2 (Rattus norvegicus) (UniProt P62483)", "fluorescence slope", -0.395),
    ("O=C(COC(=O)c1ccccc1C(=O)c1ccccc1)c1ccco1", "Voltage-gated potassium channel subunit beta-2 (Rattus norvegicus) (UniProt P62483)", "fluorescence slope", -0.501),
    ("CC(C)(C)n1ncc2c(=O)n(CC(=O)NCc3ccccc3)cnc21", "Voltage-gated potassium channel subunit beta-2 (Rattus norvegicus) (UniProt P62483)", "fluorescence slope", -0.296),
    ("Cc1ccccc1-c1nc(CS(=O)(=O)CC(=O)NCc2ccccc2)c(C)o1", "Voltage-gated potassium channel subunit beta-2 (Rattus norvegicus) (UniProt P62483)", "fluorescence slope", -0.532),
    ("Cc1nc2ccccc2c(=O)n1/N=C/c1ccncc1", "Voltage-gated potassium channel subunit beta-2 (Rattus norvegicus) (UniProt P62483)", "fluorescence slope", -0.526),
    ("CCc1nnc(NC(=O)CSc2nc(-c3ccc(OC)cc3)ns2)s1", "Voltage-gated potassium channel subunit beta-2 (Rattus norvegicus) (UniProt P62483)", "fluorescence slope", -0.408),
    ("CCOCCCNC(=O)C(c1ccccc1)N(Cc1ccc2c(c1)OCO2)C(=O)CNC(C)=O (configuration not stated)", "Voltage-gated potassium channel subunit beta-2 (Rattus norvegicus) (UniProt P62483)", "fluorescence slope", -0.562),
    ("O=C(O)C(c1ccccc1)N1CCCC1 (configuration not stated)", "Voltage-gated potassium channel subunit beta-2 (Rattus norvegicus) (UniProt P62483)", "fluorescence slope", -0.291),
    ("CCCCOc1cccc(NC(=O)CSc2nccn2C)c1", "Voltage-gated potassium channel subunit beta-2 (Rattus norvegicus) (UniProt P62483)", "fluorescence slope", -0.318),
    ("O=S1(=O)Nc2c(ccc3cccnc23)-c2ccccc21", "Voltage-gated potassium channel subunit beta-2 (Rattus norvegicus) (UniProt P62483)", "fluorescence slope", -0.465),
    ("Cc1ccc(-n2c3c(cc(C(=O)O)c2=O)C(=O)CC(C)(C)C3)cc1", "Voltage-gated potassium channel subunit beta-2 (Rattus norvegicus) (UniProt P62483)", "fluorescence slope", -0.377),
    ("CSc1ccccc1NC(=O)CN(c1ccccc1)S(=O)(=O)N(C)C", "Voltage-gated potassium channel subunit beta-2 (Rattus norvegicus) (UniProt P62483)", "fluorescence slope", -0.356),
    ("COC(=O)c1c(NC(=O)CCc2ccc(C)o2)sc(C)c1C", "Voltage-gated potassium channel subunit beta-2 (Rattus norvegicus) (UniProt P62483)", "fluorescence slope", -0.294),
    ("CN(C)CCNc1oc(-c2ccccc2F)nc1C#N", "Voltage-gated potassium channel subunit beta-2 (Rattus norvegicus) (UniProt P62483)", "fluorescence slope", -0.062),
    ("O=C(Cc1cccs1)N(c1ccccc1)C1C=CS(=O)(=O)C1 (configuration not stated)", "Voltage-gated potassium channel subunit beta-2 (Rattus norvegicus) (UniProt P62483)", "fluorescence slope", -0.376),
    ("COc1ccc(OC)c(NS(=O)(=O)Cc2ccccc2)c1", "Voltage-gated potassium channel subunit beta-2 (Rattus norvegicus) (UniProt P62483)", "fluorescence slope", -0.424),
    ("CCCCOc1ccc(C(=O)Nc2ccc(N3CCN(C(=O)C(C)C)CC3)cc2)cc1", "Voltage-gated potassium channel subunit beta-2 (Rattus norvegicus) (UniProt P62483)", "fluorescence slope", -0.44),
    ("CCCn1nnc(NCc2ccc(OCc3cccs3)c(OC)c2)n1", "Voltage-gated potassium channel subunit beta-2 (Rattus norvegicus) (UniProt P62483)", "fluorescence slope", -0.467),
    ("Cc1cc(/C=N/n2cnnc2)c(C)n1-c1ccc(Cl)cc1Cl", "Voltage-gated potassium channel subunit beta-2 (Rattus norvegicus) (UniProt P62483)", "fluorescence slope", -0.294),
    ("CC(=O)N1CCc2cc(S(=O)(=O)NCCC3=CCCCC3)ccc21", "Voltage-gated potassium channel subunit beta-2 (Rattus norvegicus) (UniProt P62483)", "fluorescence slope", -0.425),
    ("Cc1ccc(C)c2[nH]c(=O)c(CCNC(=O)c3ccc(Br)o3)cc12", "Voltage-gated potassium channel subunit beta-2 (Rattus norvegicus) (UniProt P62483)", "fluorescence slope", -0.481),
    ("CCn1nnc(NC(=O)c2cc3ccccc3o2)n1", "Voltage-gated potassium channel subunit beta-2 (Rattus norvegicus) (UniProt P62483)", "fluorescence slope", -0.297),
    ("Cc1cc(S(=O)(=O)N2CCN(c3ncccn3)CC2)ccc1-n1cnnn1", "Voltage-gated potassium channel subunit beta-2 (Rattus norvegicus) (UniProt P62483)", "fluorescence slope", -0.393),
    ("COC(=O)CSc1nnc(CSc2nc(C)cc(C)n2)n1Cc1ccco1", "Voltage-gated potassium channel subunit beta-2 (Rattus norvegicus) (UniProt P62483)", "fluorescence slope", -0.404),
    ("Cc1onc(-c2ccccc2)c1C(=O)NCc1cccnc1", "Voltage-gated potassium channel subunit beta-2 (Rattus norvegicus) (UniProt P62483)", "fluorescence slope", -0.385),
    ("CCOC(=O)c1ccc(NS(=O)(=O)c2ccc(SC)cc2)cc1", "Voltage-gated potassium channel subunit beta-2 (Rattus norvegicus) (UniProt P62483)", "fluorescence slope", -0.48),
    ("O=C(NCc1cccs1)C(Cc1ccccc1)n1cccc1 (configuration not stated)", "Voltage-gated potassium channel subunit beta-2 (Rattus norvegicus) (UniProt P62483)", "fluorescence slope", -0.614),
    ("O=C(NC1CCS(=O)(=O)C1)OC1CCCCC1 (configuration not stated)", "Voltage-gated potassium channel subunit beta-2 (Rattus norvegicus) (UniProt P62483)", "fluorescence slope", -0.468),
    ("O=C(Nc1sccc1C(=O)NCc1ccco1)c1cccnc1", "Voltage-gated potassium channel subunit beta-2 (Rattus norvegicus) (UniProt P62483)", "fluorescence slope", -0.461),
    ("CCn1nnnc1SCC(=O)N1CCOCC1", "Voltage-gated potassium channel subunit beta-2 (Rattus norvegicus) (UniProt P62483)", "fluorescence slope", -0.637),
    ("Cc1ccc(-c2nnnn2CS(=O)(=O)c2ccccc2)cc1", "Voltage-gated potassium channel subunit beta-2 (Rattus norvegicus) (UniProt P62483)", "fluorescence slope", -0.598),
    ("O=C(Nc1ccc2c(c1)OCCO2)c1cnc2n(c1=O)CCS2", "Voltage-gated potassium channel subunit beta-2 (Rattus norvegicus) (UniProt P62483)", "fluorescence slope", -0.57),
    ("COc1ccc(C)cc1NC(=O)CNC(=O)Cn1ccc2ccccc2c1=O", "Voltage-gated potassium channel subunit beta-2 (Rattus norvegicus) (UniProt P62483)", "fluorescence slope", -0.461),
    ("O=C(CCn1c(=O)oc2ccccc21)NCCN1CCOCC1", "Voltage-gated potassium channel subunit beta-2 (Rattus norvegicus) (UniProt P62483)", "fluorescence slope", -0.58),
    ("O=C(CC(Cc1ccccc1)C(=O)O)NCCc1ccc2c(c1)OCO2 (configuration not stated)", "Voltage-gated potassium channel subunit beta-2 (Rattus norvegicus) (UniProt P62483)", "fluorescence slope", -0.424),
    ("CCOc1ccc(NC2c3ccccc3C(=O)N2Cc2ccco2)cc1 (configuration not stated)", "Voltage-gated potassium channel subunit beta-2 (Rattus norvegicus) (UniProt P62483)", "fluorescence slope", -0.6),
    ("Cc1cc(C)n(C(C)n2nc(C)cc2C)n1", "Voltage-gated potassium channel subunit beta-2 (Rattus norvegicus) (UniProt P62483)", "fluorescence slope", -0.364),
    ("O=C(Nc1ccccc1C(=O)O)c1cccc(NC(=O)c2ccc(Br)o2)c1", "Voltage-gated potassium channel subunit beta-2 (Rattus norvegicus) (UniProt P62483)", "fluorescence slope", -0.441),
    ("Cc1cc(NC(=O)CSc2nnc(COc3cccc(C)c3C)n2Cc2ccco2)no1", "Voltage-gated potassium channel subunit beta-2 (Rattus norvegicus) (UniProt P62483)", "fluorescence slope", -0.6),
    ("COc1cccc(NC(=O)c2nnn(Cc3ccc(Br)cc3F)c2N)c1", "Voltage-gated potassium channel subunit beta-2 (Rattus norvegicus) (UniProt P62483)", "fluorescence slope", -0.484),
    ("CCCCn1c(SCC(=O)NCc2ccccc2)nc2ccc(N3CCOCC3)cc2c1=O", "Voltage-gated potassium channel subunit beta-2 (Rattus norvegicus) (UniProt P62483)", "fluorescence slope", -0.351),
]

Reference source: PubChem BioAssay
